- System: PPARg:RXRa DBDmut IVT, anti-RXR (DBD mutation: RXRa K156A/R161A, NR concentration 270 nM, RXRa partner concentration 90 nM)
- experimental_details: PBM binding z-score (relative to random genomic background probes); higher = stronger binding; sequences stand for … in GC…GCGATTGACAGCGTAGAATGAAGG
Returns one of met or not met; met when PBM binding z-score is >= 1.

Is reported PBM binding z-score greater than or equal to 1 here: "GCTAGTTGGTAAGTAAAAGGTCACACACCGGTCG" not met

API: above_or_equal(metric=PBM binding z-score, cutoff=1) for item "ACCATTAGTTGACTTAGGGCAACCGATACGACGC" not met

Record "GCGACTGGGGCAAAGCAGGTGACCATAAGGTTGG" ; criterion: PBM binding z-score no lower than 1. Met? met

Does the sequence "ATCTCAAGGTAACAAGTTCAGTGAAAGAGAGGAC" have recorded PBM binding z-score that is 1 or more? not met

Form field: PBM binding z-score at least 1? Entry: "CAAACTAGGACACCGGAAGGTCAAAGTCCGCATG" met

Could you tell me if the measured PBM binding z-score of "GATACAGGGTCAGCTGGAGGCCAGAGTATGGAAA" reaches 1 or more? met

====

- System: RXRa homodimer (NR concentration 180 nM)
- experimental_details: PBM binding z-score (relative to random genomic background probes); higher = stronger binding; sequences stand for … in GC…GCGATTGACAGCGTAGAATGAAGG
Each record gets a class by PBM binding z-score: low class = under 0.7, middle class = from 0.7 up to 3, high class = 3 and over

# polymer_sequence, group_label
measured = [
    ("TCTAGCTGGCCAGAGGGTCACTCAAGAGGTACGG", "middle class"),
    ("CTCGAAAGGTCGATTGAGGTGAGTATACGGATAA", "high class"),
    ("TGACCAAGGTGAAAGGTCGTTGATGCACGCCTTG", "high class"),
    ("TAGCCTAGGTGAGATCGGGCCAGTATACGCTATA", "low class"),
    ("ACTTACGGGTCAACGAGATTATAGCACGCGTATA", "high class"),
    ("TCTGCCAGGTCAGTTGGTCAGCTAACGAGCTGCC", "middle class"),
]

Proceed to the following item.
Assign a bin to "CGAACTAGGGCATGAGTTGATAGCAAATGCCGAT" low class

====

- Test system: RARg:RXRa (NR concentration 270 nM, RXRa partner concentration 90 nM)
- experimental_details: PBM binding z-score (relative to random genomic background probes); higher = stronger binding; sequences stand for … in GC…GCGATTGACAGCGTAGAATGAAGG
I'd appreciate it if you could supply PBM binding z-score values for the items below.
Numbers only.

Could you tell me PBM binding z-score for each of these sequences? They are listed below.
1. TCTAGCAGGCCAGAGGGGCACTCAAGAGGTACGG
2. TCATATATGTAAACAGGTGAAAGTCCGTAAGTTA
3. ATCTCTAGGTAAAGATAGTTCAGTGCATGCAAAT
4. TGTCACAGTTCAAAGGTAACGTAAGTATCCACAC
5. TCATATAGGTAATACACGTGAAAGTCGGCATCTA
6. ATTACAGGGTCACTAGGCCAGAGTAGGTACGAAT
7. CCTAGCAGGTCAATCTGGGTCACTCAAGGCTTGA

1: 0.104; 2: 0.551; 3: 0.406; 4: 3.57; 5: 0.577; 6: 5.4; 7: 4.92

I'm hoping you can list PBM binding z-score for every sequence here, please.
1. ATCTCTAGATAAAAGTTCAGTGAATCCCGAGGAT
2. AGTCAAAGTTCAGGACGAGCTAACGTAAAGCACG
3. CCGAGTAGGTTACGGGGCATTCAGGCAACGGTGA
4. CGAACTAGGTCATTGACAGGACAGTGAGTAGTAA
5. CCTGCTAGGTGAATGGTCAGCTAAAGCAGCTCGC
6. AGACTGAGGTTACCAAAGATCAGGGAAACGCTTG

1: 1.29; 2: 4.22; 3: 1.02; 4: 4.39; 5: 0.0358; 6: 2

Items follow; give PBM binding z-score for each.
1. TCTGCTAGTTCAGTTGGTCAGCTAACGAGCTGCC
2. CCTACTGGGCCACGAAAGGTTATTGATTCAGTGA

-0.136
1.1
